assay_procedure: Cmax in Sprague-Dawley rat at 2 mg/kg, iv measured after 8 hrs by LC-MS/MS analysis
Type: ADME, organism-based
experimental_conditions: in vivo
readout_type: Cmax (µg/mL)

{"columns": ["smiles_string", "unit_of_measurement", "endpoint_result"],
 "data": [
  ["COc1cccc(S(=O)(=O)NC[C@@H]2CCCN2)c1.Cl", "µg/mL", 0.746]
]}

----------
system: Trace amine-associated receptor 1 (Homo sapiens)
Sequence (Q96RJ0 whole entry): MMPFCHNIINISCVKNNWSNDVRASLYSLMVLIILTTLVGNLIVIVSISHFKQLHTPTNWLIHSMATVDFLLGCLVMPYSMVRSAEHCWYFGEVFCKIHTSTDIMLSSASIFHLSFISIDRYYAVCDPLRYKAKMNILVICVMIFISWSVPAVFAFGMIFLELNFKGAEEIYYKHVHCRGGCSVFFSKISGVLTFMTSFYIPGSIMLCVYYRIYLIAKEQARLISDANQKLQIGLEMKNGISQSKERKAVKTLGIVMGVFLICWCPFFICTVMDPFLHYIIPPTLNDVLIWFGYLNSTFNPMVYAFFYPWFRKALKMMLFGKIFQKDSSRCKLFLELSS
assay_procedure: Agonist activity at TAAR1 (unknown origin) transfected in HEK293 cells co-transfected with Galphaq-Nluc, Gbeta1/3 and Ggamma1/2/9-mVenus assessed as Galphaq-Gbeta/gamma dissociation by BRET assay
Type: functional, cell-based
pEC50: −log10 of the molar value.

{"columns": ["smiles_string", "pEC50"],
 "data": [
  ["O=S(=O)(NC[C@@H]1CCCN1)c1ccc(O)cc1", "< 5.00"],
  ["N[C@H]1CN(c2ncccc2C(F)(F)F)C[C@@H]1C1CC1", 7.04],
  ["N#Cc1cccc(S(=O)(=O)NC[C@@H]2CCCN2)c1", "< 5.00"],
  ["O=S(=O)(NC[C@@H]1CCCN1)c1c(Cl)cccc1Cl", "< 5.00"],
  ["O=S(=O)(NC[C@@H]1CCCN1)c1cccc(Cl)c1", "< 5.00"],
  ["Cc1ccccc1S(=O)(=O)NC[C@@H]1CCCN1", "< 5.00"]
]}

----------
assay_procedure: Metabolic stability in human liver microsomes assessed as intrinsic clearance preincubated for 60 mins followed by NADPH addition and measured after 60 mins by LC-MS/MS analysis
Type: ADME, Microsome
experimental_conditions: time 120 min, read-out: CLH

{"columns": ["smiles_string", "microsomal CLint"],
 "data": [
  ["COc1cccc(S(=O)(=O)NC[C@@H]2CCCN2)c1.Cl", "11 µL/min/mg"]
]}

----------
assay_procedure: Half-life in Sprague-Dawley rat at 10 mg/kg, po measured after 8 hrs by LC-MS/MS analysis
Assay type: ADME, organism-based
experimental_conditions: in vivo

{"columns": ["smiles_string", "unit_of_measurement", "half-life"],
 "data": [
  ["COc1cccc(S(=O)(=O)NC[C@@H]2CCCN2)c1.Cl", "h", 1.53]
]}

----------
assay_procedure: AUC (0 to infinity) in Sprague-Dawley rat at 2 mg/kg, iv measured after 8 hrs by LC-MS/MS analysis
Type: ADME, organism-based
experimental_conditions: in vivo

{"columns": ["smiles_string", "AUC(0-inf) [ng·h/mL]"],
 "data": [
  ["COc1cccc(S(=O)(=O)NC[C@@H]2CCCN2)c1.Cl", 356]
]}

Value source: ChEMBL document CHEMBL6177995
